Catalogue of pIC50 values
# Measured on: Neuropeptide Y receptor type 1 (Homo sapiens)
# Sequence (P25929 whole entry): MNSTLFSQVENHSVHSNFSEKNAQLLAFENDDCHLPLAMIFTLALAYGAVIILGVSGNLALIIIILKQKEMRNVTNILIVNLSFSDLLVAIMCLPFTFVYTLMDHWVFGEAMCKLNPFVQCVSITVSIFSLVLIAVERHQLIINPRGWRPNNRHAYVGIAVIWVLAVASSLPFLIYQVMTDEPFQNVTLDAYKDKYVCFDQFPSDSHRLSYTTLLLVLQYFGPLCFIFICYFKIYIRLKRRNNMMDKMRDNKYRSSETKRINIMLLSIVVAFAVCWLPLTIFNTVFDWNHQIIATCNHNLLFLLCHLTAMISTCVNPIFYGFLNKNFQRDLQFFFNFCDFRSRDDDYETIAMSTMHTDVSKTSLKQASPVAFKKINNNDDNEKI
# Method summary: Affinity against Neuropeptide Y receptor Y1 in SK-N-MC cell line
# Format: cell-based
pIC50: −log10 of the molar value.

{"Substance": "Ac-ASLRHFLNLVTRQRY-NH2", "Op": "=", "pIC50": 6.12}
{"Substance": "Ac-ASLRHWLNLVTRQRY-NH2", "Op": "=", "pIC50": 7.11}
{"Substance": "Ac-ASLRHFLNLVTRQRF-NH2", "Op": "<", "pIC50": 5.00}
{"Substance": "Ac-YSLRHFLNLVTRQRY-NH2", "Op": "=", "pIC50": 7.31}
{"Substance": "Ac-ASLRAFLNLVTRQRY-NH2", "Op": "=", "pIC50": 6.17}
{"Substance": "Ac-ASLRHYLWLVTRQRY-NH2", "Op": "=", "pIC50": 6.12}
{"Substance": "Ac-ASLRHYWNLVTRQRY-NH2", "Op": "=", "pIC50": 6.40}
{"Substance": "Ac-FSLRHFLNLVTRQRY-NH2", "Op": "=", "pIC50": 6.56}
{"Substance": "Ac-ASLRHYWNWVTRQRY-NH2", "Op": "=", "pIC50": 6.63}

---

Catalogue of pIC50 values
# Measured on: Neuropeptide Y receptor type 2 (Rattus norvegicus, UniProt Q9ERC0)
# Sequence (Q9ERC0 whole entry): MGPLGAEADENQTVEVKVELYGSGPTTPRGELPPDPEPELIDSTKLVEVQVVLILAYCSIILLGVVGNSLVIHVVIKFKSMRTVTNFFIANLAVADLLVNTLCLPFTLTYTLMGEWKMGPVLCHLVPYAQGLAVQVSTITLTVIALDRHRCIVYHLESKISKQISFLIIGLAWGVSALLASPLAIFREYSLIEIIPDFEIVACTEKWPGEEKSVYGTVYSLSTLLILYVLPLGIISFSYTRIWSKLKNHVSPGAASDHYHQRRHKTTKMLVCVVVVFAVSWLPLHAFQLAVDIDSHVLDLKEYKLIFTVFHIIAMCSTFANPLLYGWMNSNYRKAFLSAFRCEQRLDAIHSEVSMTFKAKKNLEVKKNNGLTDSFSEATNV
# Method summary: Antisecretory potency, affinity for intestinal PYY of rat jejunum by using short circuit current (SCC) method.
# Format: tissue-based
pIC50: −log10 of the molar value. Where a SMILES comes first, the peptide text is derived from it. [ ]: non-standard residue; d: D form. 1Nal = N[C@@H](Cc1cccc2ccccc12)C(=O)O

{"Compound": "CC(=O)N[C@@H](C)C(=O)N[C@@H](CO)C(=O)N[C@@H](CC(C)C)C(=O)N[C@@H](CCCN=C(N)N)C(=O)N[C@@H](Cc1c[nH]cn1)C(=O)N[C@@H](Cc1cccc2ccccc12)C(=O)N[C@@H](CC(C)C)C(=O)N[C@@H](CC(N)=O)C(=O)N[C@@H](CC(C)C)C(=O)N[C@H](C(=O)N[C@H](C(=O)N[C@@H](CCCN=C(N)N)C(=O)N[C@@H](CCC(N)=O)C(=O)N[C@@H](CCCN=C(N)N)C(=O)N[C@@H](Cc1ccc(O)cc1)C(N)=O)[C@@H](C)O)C(C)C (Ac-ASLRH[1Nal]LNLVTRQRY-NH2)", "pIC50": 8.18}
{"Compound": "CC(=O)N[C@@H](C)C(=O)N[C@@H](CO)C(=O)N[C@@H](CC(C)C)C(=O)N[C@@H](CCCNC(=N)N)C(=O)N[C@@H](Cc1cnc[nH]1)C(=O)N[C@@H](Cc1ccc(O)cc1)C(=O)N[C@@H](CC(C)C)C(=O)N[C@@H](CC(N)=O)C(=O)N[C@@H](Cc1cccc2ccccc12)C(=O)N[C@H](C(=O)N[C@H](C(=O)N[C@@H](CCCNC(=N)N)C(=O)N[C@@H](CCC(N)=O)C(=O)N[C@@H](CCCNC(=N)N)C(=O)N[C@@H](Cc1ccc(O)cc1)C(N)=O)[C@@H](C)O)C(C)C (Ac-ASLRHYLN[1Nal]VTRQRY-NH2)", "pIC50": 8.45}
